Molecular target: UniProt Q13822
Assay: Assay A: Biochemical ATX Assay
Details: recombinant ATX, 18:1 LPC substrate, 18:1 LPA formation; compounds of the invention
pIC50: −log10 of the molar value.
MEASURE NAME: pIC50

Solved entries:
# STRUCTURE AS SMILES, MEASURE NAME, DATA VALUE
data = [
    ("CC(=O)N1CCN(c2ccc(CNc3ccc(OCc4ccc(OC(F)(F)F)nc4)nn3)cc2)CC1", "pIC50", 8.40),
    ("CC(=O)N1CCN(c2ccc(CNc3ccc(OCc4cncc(C#N)c4)nn3)cc2)CC1", "pIC50", 8.70),
    ("COc1ccc(COc2ccc(NCc3ccc(C4CCN(C(C)=O)CC4)cc3)nn2)cn1", "pIC50", 8.52),
    ("CC(=O)N1CCN(c2ccc(CNc3ccc(OCc4cc(Cl)cc(Cl)c4)nn3)cc2)CC1", "pIC50", 8.22),
    ("CC(=O)N1CCN(c2ccc(CNc3ccc(OCc4cccc(C#N)c4)nn3)cc2)CC1", "pIC50", 8.40),
]

1 = COc1cc(COc2ccc(NCc3ccc(N4CCN(C(C)=O)CC4)cc3)nn2)ccn1
2 = CC(=O)N1CCN(c2ccc(CNc3ccc(OCc4cc(C#N)cc(OC(F)(F)F)c4)nn3)cc2)CC1
# returns the entry with the larger pIC50; inputs 1 and 2 Could you answer with the label of the item you picked?
2

---

Molecular target: ATX in human whole blood (Homo sapiens (Human), UniProt Q13822)
Assay: Assay B: Whole-Blood ATX Assay
Details: 1 h at 37° C., 18:2 LPA formation, compounds of the invention
MEASURE NAME: IC50 (µM)

Some solved entries appear below for comparison.
# STRUCTURE AS SMILES, TESTED ON, UNIT TAG, IC50
rows = [
    ("CC(=O)N1CCN(c2ccc(CNc3ccc(OCc4cccc(C#N)c4)nn3)cc2)CC1", "ATX in human whole blood (Homo sapiens (Human), UniProt Q13822)", "µM", 0.201),
    ("CC(=O)N1CCN(c2ccc(CNc3ccc(OCc4ccnc(C#N)c4)nn3)cc2)CC1", "ATX in human whole blood (Homo sapiens (Human), UniProt Q13822)", "µM", 0.083),
    ("CC(=O)N1CCN(c2ccc(CNc3ccc(OCc4cncc(C#N)c4)nn3)cc2)CC1", "ATX in human whole blood (Homo sapiens (Human), UniProt Q13822)", "µM", 0.055),
    ("COc1ccc(COc2ccc(NCc3ccc(C4CCN(C(C)=O)CC4)cc3)nn2)cn1", "ATX in human whole blood (Homo sapiens (Human), UniProt Q13822)", "µM", 0.038),
]

a = COc1ccc(COc2ccc(NCc3ccc(N4CCN(C(C)=O)CC4)cc3)nn2)cn1
b = CC(=O)N1CCC(c2ccc(CNc3ccc(OCc4ccccc4)nn3)cc2)CC1
Compare the recorded IC50 of a and b ; state which is larger. Let me know the label of the one you choose.
b

---

Target: ATX in human whole blood (Homo sapiens (Human))
Assay: Assay B: Whole-Blood ATX Assay
Details: 1 h at 37° C., 18:2 LPA formation, compounds of the invention
pIC50: −log10 of the molar value.
MEASURE NAME: pIC50

# STRUCTURE AS SMILES, pIC50
data = [
    ("CC(=O)N1CCN(c2ccc(CNc3ccc(OCc4cc(Cl)cc(Cl)c4)nn3)cc2)CC1", 7.34),
    ("CC(=O)N1CCN(c2ccc(CNc3ccc(OCc4ccc(OC(F)(F)F)nc4)nn3)cc2)CC1", 8.05),
]

a = CC(=O)N1CCN(c2ccc(CNc3ccc(OCc4ccccc4)nn3)cc2)CC1
b = COc1cc(COc2ccc(NCc3ccc(N4CCN(C(C)=O)CC4)cc3)nn2)ccn1
# argmax over pIC50 for candidates a and b # answer = label of selected item
a
(a: 7.14, b: 6.73)
